target: T1, human IL-15Rα (human, UniProt Q13261 31-205, limits assumed); experiment: SPR, steady state
T1 construct: also called hIL-15Rα; IL-15 receptor alpha
T1 sequence (Q13261 31-205 limits assumed): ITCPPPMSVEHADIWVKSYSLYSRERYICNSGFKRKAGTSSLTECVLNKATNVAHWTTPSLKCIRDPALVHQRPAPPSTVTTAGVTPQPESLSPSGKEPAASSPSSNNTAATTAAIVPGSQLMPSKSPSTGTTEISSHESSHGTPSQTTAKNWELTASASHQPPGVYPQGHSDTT
# pKd per entry
Just so you know, pKd here is -log10 of the concentration in molar units; reply with that number alone.

| Binder | pKd |
| --- | --- |
| hIL-15 V49R/D30H (ligand) NWVNVISDLKKIEDLIQSMHIDATLYTESHVHPSCKVTAMKCFLLELQRISLESGDASIHDTVENLIILANNSLSSNGNVTESGCKECEELEEKNIKEFLQSFVHIVQMFINTGGGGSGHHHHHHHHGGGLNDIFEAQKIEWHE | 6.92 |

Switching to the query record.
Please list pKd recorded for the binder hIL-15 V49R/N1Q (ligand) QWVNVISDLKKIEDLIQSMHIDATLYTESDVHPSCKVTAMKCFLLELQRISLESGDASIHDTVENLIILANNSLSSNGNVTESGCKECEELEEKNIKEFLQSFVHIVQMFINTGGGGSGHHHHHHHHGGGLNDIFEAQKIEWHE 6.94
